Hey, just so you know, these numbers are from patent EP0232423A1.

Property: EC50; scope: individual compounds
tested on: isolated basilar artery; assay: Relaxation of isolated basilar artery contracted by 50 mM KCl; format: cell-based, Mongrel dogs; conditions: Canis lupus familiaris; relaxation of isolated basilar artery, 50 mM KCl contraction; read-out: ED50 (the source's name)
Counter-ions that a name gives are not always drawn.
measuredMetric: EC50 (nM)

> print(dat)
                                   compound             testedsystem  measuredmetric  testresult
1  CC(C(O)c1ccc(O)cc1)N1CCC(Cc2ccccc2)CC1 (stereo not drawn) [Ifenprodil tartrate]  isolated basilar artery            EC50       11000
2  C[C@@H]([C@H](O)c1ccc(OCc2ccccc2)cc1)N1CCC(Cc2ccccc2)CC1 (relative stereo) [Compound (I) (erythro form) lactate]  isolated basilar artery            EC50         160
3  C[C@@H]([C@@H](O)c1ccc(OCc2ccccc2)cc1)N1CCC(Cc2ccccc2)CC1 (relative stereo) [Compound (I) (threo form) lactate]  isolated basilar artery            EC50          85
